- METHOD_SUMMARY: chemical genetic growth profiling, strain panel (AID 1159580);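 further: tested at 20 µM; growth read once vehicle control cultures reached saturation at 30 °C; 1 = growth at the plate median or of vehicle wells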
- ASSAY_CONTEXT: S. cerevisiae deletion strains, growth OD, locus YDR195W, strain ref2
In all, about 5,500 compounds went through this assay and about 2,000 (36%) were called active. Not shown: some 18% with an inconclusive outcome. No stated cut-off is given here; in the data, active means normalized growth mostly below about 0.91 (no sharp cut-off); inconclusive means no clear call, values can overlap the other calls; inactive means mostly above about 0.92. The list shows a part of the results.
Outcome field: choose from label 1 for active, label 0 for inactive

Hi, sorry to bother you, what did the test record for `S=P(N1CC1)(N1CC1)N1CC1` ?
label 0

Continue with `Clc1ccc2c(c1)C(N1CCNCC1)=Nc1ccccc1O2`
label 0

Here is the next compound: `c1ccc2nc(N3CCNCC3)ccc2c1`
label 0

Further, for `CN(C)C(=O)Nc1ccc(Cl)c(Cl)c1` ?
label 0

Then this compound: Cc1ncc([N+](=O)[O-])n1CC(C)O (stereo not given)
label 0

CC(CCC(=O)O)[C@H]1CCC2C3CC[C@@H]4CCCC[C@]4(C)C3CC[C@@]21C (stereo not given in full) ?
label 0

// query: `O=C(O)CCC(=O)Nc1ccc(S(=O)(=O)Nc2nccs2)cc1`
label 0

Do the same for `CCOC(=O)[C@H](CCc1ccccc1)N[C@@H](C)C(=O)N1Cc2ccccc2C[C@H]1C(=O)O` please
label 0

How about this compound: COC(=O)CCC(C)C1CCC2C3CC[C@@H]4C[C@H](O)CC[C@]4(C)C3C[C@H](O)[C@]12C (stereo not given in full)
label 1

// query: COC(=O)CCC(C)[C@H]1CCC2C3C(C[C@H](O)[C@@]21C)[C@@]1(C)CC[C@@H](O)C[C@H]1C[C@H]3O (stereo not given in full)
label 0

Again, but for `CN1CCN(C2=Nc3ccccc3Oc3ccc(Cl)cc32)CC1`
label 0

What about `O=C(O)c1ccccc1C(=O)Nc1ccc(S(=O)(=O)Nc2nccs2)cc1` ?
label 0

And what about the compound COc1cc(S(C)=O)ccc1-c1nc2ncccc2[nH]1 (stereo not given) ?
label 0

Also need `Nc1cc(C(Cl)=C(Cl)Cl)c(S(N)(=O)=O)cc1S(N)(=O)=O` , thanks.
label 0

CC[C@H](CCC(C)[C@H]1CCC2C3CCC4C[C@@H](O)CC[C@]4(C)C3CC[C@@]21C)C(C)C (stereo not given in full) ?
label 0

// same read-out, input: CC(C)CCCC(C)C1CCC2C3CC[C@H]4CCCC[C@]4(C)C3CC[C@]12C (stereo not given in full)
label 0

Would you kindly repeat that for CC(CCC(=O)O)[C@H]1CCC2C3CC[C@@H]4C[C@H](O)CC[C@]4(C)C3C[C@H](O)[C@@]21C (stereo not given in full) ?
label 0

Same read-out for CC(CCC(=O)O)[C@H]1CCC2C3CC[C@@H]4C[C@H](O)CC[C@]4(C)C3CC[C@@]21C (stereo not given in full) ?
label 0

Quick one: `O=c1cc(-c2ccccc2)oc2c(O)c(O)ccc12`
label 0

Same again, this time with CC(=O)O[C@H]1C[C@@H](OC(C)=O)C(C)(C)C2CC(=O)[C@]3(C)C(CC[C@@]4(C)[C@H](c5ccoc5)OC(=O)[C@H]5O[C@]543)[C@]21C (stereo not given in full)
label 0

----------
What normalized growth was measured for each of the following?
- METHOD_SUMMARY: chemical genetic growth profiling, strain panel (AID 1159580);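 further: tested at 20 µM; growth read once vehicle control cultures reached saturation at 30 °C; 1 = growth at the plate median or of vehicle wells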
- ASSAY_CONTEXT: S. cerevisiae deletion strains, growth OD, locus YKR091W, strain srl3, stronger effect = lower value
Screen size: about 5,500 compounds; about 2,000 (36%) were called active. Another 18% or so got no clear call; they are omitted. This is one part of the list.

GET /values?readout=normalized growth&item= `CCCCC[C@H](CC(=O)NO)C(=O)N[C@H](C(=O)N1CCC[C@H]1CO)C(C)C`
1.02 (inactive)

// next record `Nc1ccncc1`
0.987 (inactive)

And then COC(=O)CCC(C)C1CCC2C3CC[C@@H]4C[C@H](O)CC[C@]4(C)C3C[C@H](O)[C@]12C (stereo partly drawn) , what is it?
0.993 (inactive)

And for `O=[N+]([O-])c1cccc2c(Br)[nH]nc12` ?
0.976 (inactive)

Same lookup for `O=[N+]([O-])c1cccc2cn[nH]c12` , please.
0.988 (inactive)

Entry `O=c1[nH]cnc2[nH]ncc12` please
0.999 (inactive)

Would you mind doing CC[C@H](CCC(C)[C@H]1CCC2C3CCC4C[C@@H](O)CC[C@]4(C)C3CC[C@@]21C)C(C)C (stereo partly drawn) as well?
0.992 (inactive)

Another molecule to check: `CC1=C2[C@H]3OC(=O)[C@@H](C)[C@@H]3CC[C@@]2(C)C=CC1=O`
0.983 (inactive)

----------
- METHOD_SUMMARY: chemical genetic growth profiling, strain panel (AID 1159580);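 further: tested at 20 µM; growth read once vehicle control cultures reached saturation at 30 °C; 1 = growth at the plate median or of vehicle wells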
- ASSAY_CONTEXT: S. cerevisiae deletion strains, growth OD, locus YLR027C, strain aat2, stronger effect = lower value
The whole screen tested about 5,500 compounds, of which about 2,000 (36%) were called active. Roughly 18% stayed inconclusive and do not appear here. The list shows a part of the results.
MEASUREMENT_NAME: normalized growth
# print the numeric value only

Fill in: normalized growth of CC(CCC(=O)O)[C@H]1CCC2C3C(C[C@H](O)[C@@]21C)[C@@]1(C)CC[C@@H](O)C[C@H]1C[C@H]3O (stereo partly specified) is ___
1.02

Again, but for `CNC(=O)Oc1ccc2c(c1)[C@]1(C)CCN(C)[C@@H]1N2C`
0.998

Follow-up item: CN[C@@H]1[C@H](OC2[C@H](O[C@H]3[C@H](O)[C@@H](O)[C@H](N=C(N)N)[C@@H](O)[C@@H]3N=C(N)N)O[C@@H](C)[C@]2(O)C=O)O[C@@H](CO)[C@H](O)[C@H]1O (stereo partly specified)
1.02

Try the molecule COC(=O)CCC(C)[C@H]1CCC2C3C(C[C@H](O)[C@@]21C)[C@@]1(C)CC[C@@H](O)C[C@H]1C[C@H]3O (stereo partly specified)
1.01

Input OC[C@H]1OC([S-])[C@H](O)[C@@H](O)[C@@H]1O.[Au+] (stereo partly specified)
1.02

Try the molecule `Cc1nc2ccccn2c(=O)c1CCN1CCC(C(=O)c2ccc(F)cc2)CC1`
1

----------
- METHOD_SUMMARY: chemical genetic growth profiling, strain panel (AID 1159580);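 further: tested at 20 µM; growth read once vehicle control cultures reached saturation at 30 °C; 1 = growth at the plate median or of vehicle wells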
- ASSAY_CONTEXT: S. cerevisiae deletion strains, growth OD, locus YML120C, strain ndi1, stronger effect = lower value
The campaign covered roughly 5,500 compounds. About 2,000 (36%) were called active. Not shown: some 18% with an inconclusive outcome. This is one part of the list.
MEASUREMENT_NAME: normalized growth
// no unit, no text: just the number

Endpoint output: normalized growth of CC(CCC(=O)O)[C@H]1CCC2C3CC[C@@H]4C[C@H](O)CC[C@]4(C)C3CC[C@@]21C (stereo not given in full) . Value?
0.93

Similarly, `O=c1cc(-c2ccccc2)oc2c(O)c(O)ccc12` ?
0.973

Similarly, `Nc1cc(-c2ccncc2)c[nH]c1=O` ?
0.979

And then COC(=O)CCC(C)[C@H]1CCC2C3C(C[C@H](O)[C@@]21C)[C@@]1(C)CC[C@@H](O)C[C@H]1C[C@H]3O (stereo not given in full) , what is it?
1.02

Repeat with `CN1CCN(C2=Nc3ccccc3Oc3ccc(Cl)cc32)CC1`
1.01

What do we get for `C/C=C/C(=O)N(CC)c1ccccc1C` ?
1

Now consider CC[C@H](CCC(C)[C@H]1CCC2C3CCC4C[C@@H](O)CC[C@]4(C)C3CC[C@@]21C)C(C)C (stereo not given in full) .
0.989

How about `COc1c(Cl)ccc(Cl)c1C(=O)O` ?
0.97

Another: `COc1cc(OC)c(OC)cc1C=O`
0.999

Item: CC(CCC(=O)O)[C@H]1CCC2C3C[C@H](O)[C@@H]4C[C@H](O)CC[C@]4(C)C3CC[C@@]21C (stereo not given in full)
0.96

Query `NNCCc1ccccc1` next
1.01

Field entry: COC(=O)CCC(C)C1CCC2C3CC[C@@H]4C[C@H](O)CC[C@]4(C)C3C[C@H](O)[C@]12C (stereo not given in full)
0.988

// repeat for NCC(CC(=O)O)c1ccc(Cl)cc1 (stereo not given) and report
0.999

Query `O=C(O)CCC(=O)Nc1ccc(S(=O)(=O)Nc2nccs2)cc1` next
1.02

Next entry: `c1ccc2c(c1)CN1CCCC1=N2`
1.01

Entry CC(CCC(=O)O)[C@H]1CCC2C3C(C[C@H](O)[C@@]21C)[C@@]1(C)CC[C@@H](O)C[C@H]1C[C@H]3O (stereo not given in full) please
0.998

Next: `Nc1cc(C(Cl)=C(Cl)Cl)c(S(N)(=O)=O)cc1S(N)(=O)=O`
1.03

Also, C[C@H](CCC(=O)O)[C@H]1CCC2C3C(CC[C@@]21C)[C@@]1(C)CC[C@@H](O)C[C@H]1C[C@H]3O (stereo not given in full) please.
0.962

Thanks! And CC(CCC(=O)O)[C@H]1CCC2C3CC[C@@H]4CCCC[C@]4(C)C3CC[C@@]21C (stereo not given in full) ?
1.01

Please give the result for `CC(=O)N=c1sc(S(N)(=O)=O)nn1C` too.
1

Could you do the same for C[C@H](CCC(=O)O)[C@H]1CCC2C3C(CC[C@@]21C)[C@@]1(C)CC[C@@H](O)C[C@H]1C[C@@H]3O (stereo not given in full) , please?
0.962

Next up: `O=c1cc(-c2ccccc2)oc2cc(O)c(O)cc12`
0.951

What do you have for `O=[N+]([O-])c1cccc2cn[nH]c12` ?
0.991

// query: `Nc1ccncc1`
0.998

Lookup `O=c1cc(-c2ccc(O)cc2)oc2cc(O)ccc12`
0.948

Also, `N#C/C(=C\c1cccc(O)c1)C(=O)O` please.
0.992

// repeat for Nc1ccn(C2O[C@H](CO)[C@@H](O)[C@H]2O)c(=O)n1 (stereo not given in full) and report
0.979

Do the same for `O=C(O)c1ccccc1C(=O)Nc1ccc(S(=O)(=O)Nc2nccs2)cc1` please
0.969

Also, `O=c1cc(-c2ccc(O)cc2)oc2cc(O)cc(O)c12` please.
0.984

Try this molecule too: `CC(=O)Nc1ccccc1`
0.967

Proceed to `CCCCC[C@H](CC(=O)NO)C(=O)N[C@H](C(=O)N1CCC[C@H]1CO)C(C)C`
1.02

Now give it for `O=C(Nc1ccccc1)Nc1ccccc1` too.
0.98

// repeat for `O=c1cc(-c2ccccc2)oc2cccc(O)c12` and report
0.917

Thanks! And `CO[C@]12C[C@@H](COC(=O)c3cncc(Br)c3)CN(C)[C@@H]1Cc1cn(C)c3cccc2c13` ?
0.993

Now give it for `N[C@H](Cc1cc(I)c(Oc2ccc(O)c(I)c2)c(I)c1)C(=O)O` too.
0.998

Same thing, different molecule: `COc1cc([C@@H]2c3cc4c(cc3[C@H](OC(C)=O)[C@H]3COC(=O)[C@@H]23)OCO4)cc(OC)c1OC`
1.01

What do you get for `CN(C)CCOC(=O)COc1ccc(Cl)cc1` ?
0.966

Similarly, `CCN(CCCc1ccccc1)CCCc1ccccc1` ?
0.943

Let us now turn to `Cc1cc(=O)oc2c(O)c(O)ccc12`
0.974

Try C=Cc1c(C)c2[n-]c1=Cc1[n-]c(c(CC)c1C)C=c1[n-]c3c(c1C)C(=O)C(C(=O)[O-])C=3c1[n-]c(c(C)c1CCC(=O)[O-])C=2.[Cu] (stereo not given) next.
1.03

Could you do the same for `C=C[C@H]1CN2CC[C@H]1C[C@@H]2[C@H](O)c1ccnc2ccccc12` , please?
1.01

// next record `CC12CC3CC(C)(C1)CC(N)(C3)C2`
1

Try this molecule next: NC(=O)c1ncn(C2O[C@H](CO)[C@@H](O)[C@H]2O)c1N (stereo not given in full)
1.01

Another: `c1ccc2nc(N3CCNCC3)ccc2c1`
1

`S=P(N1CC1)(N1CC1)N1CC1` , same question.
1.01
